Test System: T1, human apical domain of CD71 (human, UniProt P02786 189-383, limits assumed)
T1 construct: domain: apical domain
T1 sequence (P02786 189-383 limits assumed): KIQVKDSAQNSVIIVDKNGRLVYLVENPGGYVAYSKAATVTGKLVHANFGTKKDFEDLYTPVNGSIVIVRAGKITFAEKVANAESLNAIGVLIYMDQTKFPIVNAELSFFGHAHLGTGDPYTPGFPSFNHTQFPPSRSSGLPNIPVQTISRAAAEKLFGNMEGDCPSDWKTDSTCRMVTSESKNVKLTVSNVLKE
Experimental Protocol: primary ELISA; note: test concentration or dose not given here
Endpoint Label: RLU (RLU)

* CD71-binding FN3 domain SEQ ID NO 349 (designed binder) MLPAPKNLVVSRVTEDSARLSWTAPDAAFDSFFIGYLEPQPPGEAIELYVPGSERSYDLTGLKPGTEYNVTIQGVKGGFPSEPLIAHFTT | 6.87e+06
* CD71-binding FN3 domain SEQ ID NO 374 (designed binder) MLPAPKNLVVSRVTEDSARLSWTAPDAAFDSFYIAYAEPRPDGEAIQLSVPGSERSYDLTGLKPGTEYSVLIHGVKGGLLSSPLHASFTT | 3.64e+06

A: CD71-binding FN3 domain SEQ ID NO 375 (designed binder) MLPAPKNLVVSRVTEDSARLSWTAPDAAFDSFFIGYLEPQPPGEAIDLTVPGSERSYDLTGLKPGTEYNVTIQGVKGGFPSMPLSAIFTT
B: CD71-binding FN3 domain SEQ ID NO 422 (designed binder) MLPAPKNLVVSRVTEDSARLSWTAPDAAFDSFFIGYLEPQPPGEAISLLVPGSERSYDLTGLKPGTEYNVTIQGVKGGFPSHPLDASFTT
Between item A and item B , which reported RLU is smaller? Give the chosen item's label as your response.
A
